B1: LINE1-mini (parent)
chain: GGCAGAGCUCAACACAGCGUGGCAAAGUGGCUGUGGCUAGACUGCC

variants of: B1; assay: self-cleavage, relative activity (ratio to wild type); higher = more cleavage; in vitro, sequencing; the parent is a self-cleaving ribozyme
Returns one of True or False; True when self-cleavage is >= 0.07.

Does self-cleavage meet or surpass 0.07 for C31G G40C ?
False

Does self-cleavage meet or surpass 0.07 for U34G G35C ?
True

Does self-cleavage meet or surpass 0.07 for G30A U34A ?
False

Does self-cleavage meet or surpass 0.07 for G7U U34C ?
True

Does self-cleavage meet or surpass 0.07 for G7C U20C ?
True

Does self-cleavage meet or surpass 0.07 for A14U U32G ?
True

Does self-cleavage meet or surpass 0.07 for C3G G5U ?
True

Does self-cleavage meet or surpass 0.07 for G2A C13U ?
True

Does self-cleavage meet or surpass 0.07 for A6U C31G ?
True

Does self-cleavage meet or surpass 0.07 for A11G U43G ?
False

Does self-cleavage meet or surpass 0.07 for U9C A25U ?
False

Does self-cleavage meet or surpass 0.07 for C37U C42G ?
False

Does self-cleavage meet or surpass 0.07 for C13U A24C ?
True

Does self-cleavage meet or surpass 0.07 for G2C U32A ?
True

Does self-cleavage meet or surpass 0.07 for A14C A41C ?
False

Does self-cleavage meet or surpass 0.07 for U34A C46G ?
True

Does self-cleavage meet or surpass 0.07 for C13A A24C ?
True

Does self-cleavage meet or surpass 0.07 for U20C G29C ?
True
